meta.source: paper PMC12040169

- test-protocol: in vitro
- details: human, hela cells, % viability
recorded-endpoint: viability at 28.5 h, 10 µM

| compound | value-reported |
| --- | --- |
| Cc1nc2ccc(NC(=O)CC(c3ccccc3)c3ccccc3)cc2s1 [CBK293988] | 90% |
| O=S(=O)(CCSc1nc2ccccc2s1)c1nc2ccccc2s1 [CBK026908] | 92.4% |
| COc1ccc(C(=O)Nc2cc(C)c3c(=O)oc4ccccc4c3n2)cc1OC [CBK287442] | 89% |
| O=C(c1ccco1)N1CCN(CC(=O)N2c3ccccc3OCC2c2ccccc2)CC1 (stereo not drawn) [CBK239722] | 89.9% |
| CCc1noc(CN2CCC(c3c[nH]c4ccc(OC)cc34)CC2)n1 [CBK305960] | 84.1% |
| CS(=O)(=O)N1CC2(CCN(CCc3ccc(F)cc3)CC2)c2ccccc21 [CBK084103] | 93.3% |
| CNC(C)Cc1ccccc1Sc1ccccc1 (stereo not drawn) [CBK027167G] | 98% |
| CCn1cc(-c2cncn2CCCN2CCCCC2)cn1 [CBK281767] | 82.9% |
| Cc1nc(N)sc1-c1nnc(SCC(=O)Nc2ccccc2C(F)(F)F)n1C [CBK267359] | 99.5% |

###

- test-protocol: in vitro
- details: human, hela cells, % viability

| compound | viability at 28.5 h, 10 µM [%] |
| --- | --- |
| COC(=O)c1ccc(OCCn2nc(C)c(C)c(C#N)c2=O)cc1 | 69.5 |
| C[C@@H]1CN2CCCC2CN1Cc1cccc2cccnc12 (stereo partly shown) | 82.4 |
| CC1Cc2cc(C(O)(CCN(C)C)c3ccccc3)ccc2O1 (stereo not shown) | 110 |
| CC(=O)OC(COc1ccc(F)cc1)Cn1cnc2ccccc21 (stereo not shown) | 104 |
| C[C@@H](Cn1nc2c(cc1=O)CCCC2)NC(=O)c1ccc(F)cc1 | 91.3 |
| CN(C)CCN(C)C(=O)Cc1csc(-c2cccc(Cl)c2)n1 | 111 |
| FC(F)(F)c1ccc(OC2CCNCC2)nc1 | 83 |
| CCOC(=O)c1ccc(NC(=O)N2CCC3(CC2)NC(=O)Cc2ccccc23)cc1 | 107 |
| COc1cc(CNc2nnn[nH]2)cc(Cl)c1OC | 97.8 |
| Cc1csc(CNCc2c(C(C)C)nn(C)c2N(C)C)n1 | 83.7 |
| CCOC(=O)N1CCC(NC(=O)N2CCN(c3ccc(F)cc3)CC2)CC1 | 106 |
| COC(=O)c1cc(-c2ccccc2)sc1NC(=O)CSc1ncnc2sc3c(c12)CCC3 | 97.4 |
| O=C(O)CN1CCC(Oc2nccnc2OCc2ccc(Cl)c(Cl)c2)CC1 | 97 |
| NC(=O)c1c(NC(=S)NC(NC(=O)c2ccco2)C(Cl)(Cl)Cl)sc2c1CCCC2 (stereo not shown) | 103 |
| Nc1cccnc1OCCN1CCN(CC(=O)N2CCCCc3ccccc32)CC1 | 95.1 |
| CCC(CC)C(=O)Nc1nc(OC)cnc1-c1cc(Cl)cc(Cl)c1 | 95.8 |
| COc1ccc(NC(=O)c2cnc(-c3ccc(Cl)cc3)c(-c3ccc(C(C)=O)s3)c2)cn1 | 92.2 |
| COc1ccc(OC)c(-c2cc(C(=O)O)c(C)s2)c1 | 96.5 |
| CCn1cc(C(=O)N2CCN(Cc3ccco3)C[C@@H]2C(C)C)c(C)n1 | 110 |

###

- test-protocol: in vitro
- details: human, hela cells, % viability
Entries and their measured viability at 28.5 h, 10 µM follow.

| compound | scale-unit | viability at 28.5 h, 10 µM |
| --- | --- | --- |
| O=C(Cn1ccc2ccnc(-c3cccs3)c21)NCc1ccncc1 [CBK284734] | % | 86.5 |
| COc1cccc(CCC(=O)Nc2cnc(-c3cccc(C(F)(F)F)c3)c(-c3cccnc3)n2)c1 [CBK036835] | % | 90 |
| CC(C)(O)C1CCCN(C(=O)c2coc(COc3cccc(F)c3)n2)C1 (centres unmarked) [CBK306977] | % | 77.4 |
| FC(F)(F)c1ccnc(OCc2ccc(-c3ccccc3)cc2)c1 [CBK115826] | % | 108 |
| CC(=O)Nc1ccc(S(=O)(=O)Nc2ccc(C(=O)N3CCOCC3)cc2)cc1 [CBK034564] | % | 94.9 |

###

Documented activity at 10 µM across a set of molecules
- Tested on: CTL2-GFP (C. trachomatis L2/434/Bu, GFP-expressing)
- Construct: L2/434/Bu, GFP-expressing
- test-protocol: microbe, parasite or virus in culture
- Set-up: Intracellular C. trachomatis growth in HeLa cells, bulk GFP fluorescence relative to DMSO
- details: Chlamydia trachomatis, HeLa, 28.5 h; bulk GFP, mean of 2; read-out: % of control remaining

| molecule | activity at 10 µM |
| --- | --- |
| NCCCNc1ncc(C(=O)NCc2ccccc2)c(NCC2CCCCC2)n1 | 32.4% |
| COc1c(Br)cc2c(cc(C)n2-c2ccccc2)c1OCC(O)CNC(C)C (stereo not shown) | 7.41% |
| COc1ccc(CCN(CCc2ccccc2)CC(O)COc2cccc3c2CCCC3)cc1 (stereo not shown) [CBK024506T] | 51% |
| CC(C)(CN)CN(Cc1ccc(-c2ccccc2)cc1)C(=O)Nc1ccccc1C(C)(C)C [CBK002476C] | 16.4% |
| C[C@H](NC(=O)Cc1ccc(-c2ccccc2)cc1)c1nc2ccccc2[nH]1 | 185% |
| CCCCc1ccc(NC(=N)Nc2nc(C)cc(C)n2)cc1 | 22% |
| CCc1nnc(NS(=O)(=O)c2ccc(NC(=S)NC(=O)c3ccco3)cc2)s1 | 18.8% |
| CCC(c1ccc(F)cc1)N(C)C(=O)Cn1cc(C(=O)NC2CCCCC2)ccc1=O (stereo not shown) | 7.58% |
| CCc1ccc(S(=O)(=O)Nc2cc(SCC(=O)O)c(O)c3ccccc23)cc1 | 37.3% |
| CN1CCCN(c2ccc(NS(=O)(=O)c3cccc(F)c3)c3ccccc23)CC1 [CBK200010C] | 43.7% |
| COCC(=O)N[C@H]1C[C@H]2C(=O)Nc3ccc(/C=C/c4ccccc4)cc3C(=O)N2C1 | 2.8% |
| Cc1ccc(OCC(O)CN2CCN(c3nc(-c4ccccc4)ns3)CC2)c([N+](=O)[O-])c1 (stereo not shown) | 133% |
| O=C(NCc1ccc([N+](=O)[O-])cc1)c1cccnc1NCc1ccc2c(c1)OCO2 | 25.1% |
| CN(C(=O)Cc1ccsc1)c1nc2c(s1)CCc1c-2cnn1C | 29.8% |
| O=C(Nc1ccc(F)c(F)c1)NC1CCC2CN(CCOc3ccccc3)CC2C1 (stereo not shown) [CBK083365T] | 5.26% |
| COc1cc(N)c2ncccc2c1 [CBK011972C] | 7.94% |
| Cc1ccc(CNC(=O)OCc2cccnc2C)o1 | 119% |
| CCC1C(c2ccc(C)cc2)=CCC(C(=O)NCCCN(C)C)C1C (stereo not shown) | 9.47% |
| O=C(O)/C(=N\c1cccc2ccccc12)c1ccccc1 | 49.9% |

###

- test-protocol: in vitro
- details: human, hela cells, % viability

| molecule | viability at 28.5 h, 10 µM / % |
| --- | --- |
| Cc1nn(C)c(C)c1NC(=O)COc1ccc(C#N)cc1 | 87.5 |
| CS(=O)(=O)c1ccc(-c2ccc(COC3CCN(C(=O)CCCc4ccc(F)cc4)CC3)cn2)cc1 [CBK162229T] | 91.6 |
| CC(=O)C1=C(O)C(=O)N(CC(=O)O)C1c1ccc(Br)cc1 (stereo not drawn) | 89.9 |
| O=C(/C=C/c1ccc(Br)cc1)N1CCN(Cc2ccc3c(c2)OCO3)CC1 | 91.5 |
| COc1ccc(OCCN2C(=O)CNC2=S)cc1 | 77 |
| O=C(c1cccc(-c2cncc(-c3ccc(O)cc3)n2)c1)N1CCOCC1 | 100 |
| CC(C)[C@H]1CN(Cc2cc(C#N)n(C)c2)C[C@@H]1NC(=O)C1CCC1 | 91.6 |
| COc1cccc(Oc2nccnc2-c2ccc(F)cc2)c1 | 93.5 |
| c1ccc(CCNc2nc(-c3ccc(N4CCOCC4)cc3)cn3ccnc23)nc1 | 96.4 |

###

- test-protocol: in vitro
- details: human, hela cells, % viability

| molecule | viability at 28.5 h, 10 µM (%) |
| --- | --- |
| CCC1CCCCN1C(=O)c1sc(C)nc1C (stereo not shown) | 105 |
| CN(C)C(=O)C1(Cc2ccccc2-c2ccccc2)CCN(C(=O)c2cccc(F)c2)CC1 | 111 |
| CC(C)CSc1nc(O)cc(=O)n1Cc1ccccc1 | 114 |
| CCn1nc(C)c(-c2cncn2CC(C)N2CCC(C)CC2)c1C (stereo not shown) | 103 |
| CC(C)C(C(=O)O)N(C)C(=O)OCc1ccccc1 (stereo not shown) | 84.8 |
| COc1ccc(CNC(=O)C2CC=CCC2C(=O)O)cc1OC (stereo not shown) | 86.6 |
| O=C(Cc1nn[nH]n1)Nc1ccc(F)c(Cl)c1 | 95.4 |
| COc1ccc(C(=O)NCc2ccccc2)c(OC)n1 | 142 |
| O=C(NC(Cc1cccs1)c1nccs1)c1cccnc1 (stereo not shown) | 98.3 |
| CC(C)c1ccc(S(=O)(=O)Nc2ccon2)cc1 | 115 |
